- System: Staphylococcus aureus
- run_description: Antibacterial activity against methicillin-resistant Staphylococcus aureus OM584 by two-fold liquid microdilution method
- Type: functional
readout_label: MIC (µg/mL)
Form entry: value (µg/mL) — number only.

# annotated cases, reported MIC shown
Oc1ccc2cc1Oc1ccc(cc1)CCc1ccccc1-c1ccc(cc1O)CC2: 3.2
CC(=O)NC[C@H]1CN(c2ccc(N3CCOCC3)c(F)c2)C(=O)O1: 1
Oc1ccc2c(c1)CCc1ccc(cc1O)Oc1cc(ccc1O)CCc1ccc-2c(O)c1: 8
Oc1ccc2c(c1)CCc1ccc(cc1)Oc1cccc(c1)CCc1ccc-2c(O)c1: 3.2
Oc1ccc2c(c1)CCc1ccc(cc1)Oc1cc(ccc1O)CCc1ccc-2c(O)c1: 3.2
Oc1ccc2c(c1)CCc1ccc(cc1)Oc1cc(ccc1O)CCc1ccc-2cc1: 3.2
Oc1ccc2c(c1)CCc1ccc(c(O)c1)Oc1cc(ccc1O)CCc1ccc-2c(O)c1: 16

Query string: Give the measured MIC of Oc1ccccc1Oc1ccccc1 .
Result string: 6.25
